TGT: T1, COPB2_(1–304), N-terminal WD repeat of COPB2 (S. cerevisiae, UniProt P41811 1-304)
T1 construct: COPB2 (coatomer beta'), residues 1-304, N-terminal WD repeat domain; residues are counted in 'Saccharomyces cerevisiae COPB2 numbering'; PDB 2YNN (COPB2 1-304) served as search model; codon-optimised synthetic gene; also called WD-repeat domain of COPB2; source: E. coli BL21(DE3), purified (Ni-NTA, tag cleavage, ion exchange, SEC); not shown: 6xHis-Sumo3, N-terminal, cleaved
T1 sequence (looked up): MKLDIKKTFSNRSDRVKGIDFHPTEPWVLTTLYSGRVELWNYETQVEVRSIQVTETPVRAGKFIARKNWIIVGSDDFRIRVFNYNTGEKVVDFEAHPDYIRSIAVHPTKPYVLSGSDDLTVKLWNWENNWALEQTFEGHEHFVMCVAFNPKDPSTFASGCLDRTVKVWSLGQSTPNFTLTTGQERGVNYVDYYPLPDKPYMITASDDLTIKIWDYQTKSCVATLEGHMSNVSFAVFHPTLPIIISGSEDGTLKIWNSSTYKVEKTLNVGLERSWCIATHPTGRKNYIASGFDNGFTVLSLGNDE
TEST DESCRIPTION: ITC; 450 μM of each peptide titrated into 20 μM COPB2 1-304; 25°C; 150 mM NaCl, 0.5 mM TCEP, 25 mM Hepes pH 7.5; one-site model
CONDITION INFO: both partners purified
OBSERVED PROPERTY: Kd (µM)
Number only, in µM; omit the unit.

Prompt: # Kd lookup, item PVRASRNKRPTFLKIKKP (also called 18–amino acid EBP polypeptide) [exosome-binding peptide (EBP), 18-amino acid polypeptide of Wnt7a (240-257)]
Completion: 11.6

Prompt: Which Kd is reported for this binder? LKIKKP (also called C-terminal half of the polypeptide) [Wnt_(252–257) peptide (LKIKKP)]
Completion: 37.2
